biological target: hOX1R (Homo sapiens); test: FLIPR Ca2+ flux assay, orexin-1 receptor; conditions: CHO cells expressing orexin-1 receptor; agonist 70 pM Ala-6,12 orexin-A
reported endpoint: log10(IC50) (log10 of the value in nM)
A value of 2 here means IC50 of 100 in nM, since values are log10.

Using the record for CCCOc1ccnc(O[C@@H]2CC[C@@H](C)N(C(=O)c3ccccc3-n3nccn3)C2)c1 , report its log10(IC50).
3.40

Same for C[C@@H]1CC[C@@H](Oc2cc(OCC(F)F)ccn2)CN1C(=O)c1ccccc1-n1ncnn1
3.91

Same for C[C@@H]1CC[C@@H](Oc2cc(OCC(F)F)ccn2)CN1C(=O)c1c(F)cccc1-n1nccn1
3.47

Same for CC(C)COc1ccnc(O[C@@H]2CC[C@@H](C)N(C(=O)c3ccccc3-n3nccn3)C2)c1
3.75

Same for COc1ccc(C(=O)N2C[C@H](Oc3cc(OC(C)C)ccn3)CC[C@H]2C)c(-n2nccn2)n1
4.00

Same for CC(C)Oc1ccnc(O[C@@H]2CC[C@@H](C)N(C(=O)c3ccccc3-c3ncccn3)C2)c1
3.21

Same for COc1ccnc(O[C@@H]2CC[C@@H](C)N(C(=O)c3ccccc3-n3nccn3)C2)c1C=O
3.83

Same for C[C@@H]1CC[C@@H](Oc2cc(OC(F)F)ccn2)CN1C(=O)c1ccsc1-n1nccn1
3.01

Same for C[C@@H]1CC[C@@H](Oc2cc(OC(F)F)ccn2)CN1C(=O)c1cscc1-n1nccn1
3.25

Same for C[C@@H]1CC[C@@H](Oc2cc(OCC(F)(F)F)ccn2)CN1C(=O)c1ccccc1-n1ncnn1
4.00

Same for CC(C)Oc1ccnc(O[C@@H]2CC[C@@H](C)N(C(=O)c3ccccc3-n3ncnn3)C2)c1
3.08

Same for COc1ccnc(O[C@@H]2CC[C@@H](C)N(C(=O)c3ccc(OC)nc3C3CC3)C2)c1
3.91

Same for COc1ccnc(O[C@@H]2CC[C@@H](C)N(C(=O)c3cccc(F)c3-n3nccn3)C2)c1
2.76

Same for C[C@@H]1CC[C@@H](Oc2cc(OCC(F)F)ccn2)CN1C(=O)c1ncccc1-c1ncccn1
3.97

Same for C[C@@H]1CC[C@@H](Oc2cc(OCC(F)F)ccn2)CN1C(=O)c1cccc(F)c1-n1nccn1
3.33

Same for C[C@@H]1CC[C@@H](Oc2cc(OCC(F)F)ccn2)CN1C(=O)c1ccccc1C1(C#N)CC1
3.64

Same for CCOc1ccccc1C(=O)N1C[C@H](Oc2cc(OC)ccn2)CC[C@H]1C
3.30

Same for CC(C)Oc1ccnc(O[C@@H]2CC[C@@H](C)N(C(=O)c3ccsc3-n3nccn3)C2)c1
3.17

Same for COc1ccnc(O[C@@H]2CC[C@@H](C)N(C(=O)c3c(F)cccc3-n3nccn3)C2)c1
3.20

Same for CCOc1ccnc(O[C@@H]2CC[C@@H](C)N(C(=O)c3ccsc3-c3ncccn3)C2)c1
2.95

Same for C[C@@H]1CC[C@@H](Oc2cc(OCC(F)F)ccn2)CN1C(=O)c1ccccc1-c1ncccn1
3.47

Same for Cc1nc(-c2ccccc2C(=O)N2C[C@H](Oc3cc(OCC(F)F)ccn3)CC[C@H]2C)no1
3.40

Same for C[C@@H]1CC[C@@H](Oc2cc(OCC(F)F)ccn2)CN1C(=O)c1ccsc1-c1ncccn1
3.72

Same for C[C@@H]1CC[C@@H](Oc2cc(OC(F)F)ccn2)CN1C(=O)c1ccccc1-n1nccn1
2.29

Same for CC(C)Oc1ccnc(O[C@@H]2CC[C@@H](C)N(C(=O)c3ccc(F)cc3-n3nccn3)C2)c1
3.33

Same for C[C@@H]1CC[C@@H](Oc2cc(OCC(F)F)ccn2)CN1C(=O)c1ccsc1-n1nccn1
3.31

Same for COc1ccnc(O[C@@H]2CC[C@@H](C)N(C(=O)c3ccccc3-n3nccn3)C2)c1Br
2.93

Same for COc1ccnc(O[C@@H]2CC[C@@H](C)N(C(=O)c3ccc(OC)nc3-n3nccn3)C2)c1
4.00

Same for C[C@@H]1CC[C@@H](Oc2cc(OCC(F)F)ccn2)CN1C(=O)c1ccc(F)cc1-c1ncccn1
3.55

Same for CCOc1ccnc(O[C@@H]2CC[C@@H](C)N(C(=O)c3ccsc3-n3nccn3)C2)c1
3.06

These measurements were taken from patent US9745284B2.
